Data origin: patent EP4737482A1

Catalogue of Kd readings, one per entry.
assayed.target: T1, human MYCT1 (hMYCT1) (human, UniProt Q8N699 1-235, limits assumed)
T1 construct: also called MYC Target 1
T1 sequence: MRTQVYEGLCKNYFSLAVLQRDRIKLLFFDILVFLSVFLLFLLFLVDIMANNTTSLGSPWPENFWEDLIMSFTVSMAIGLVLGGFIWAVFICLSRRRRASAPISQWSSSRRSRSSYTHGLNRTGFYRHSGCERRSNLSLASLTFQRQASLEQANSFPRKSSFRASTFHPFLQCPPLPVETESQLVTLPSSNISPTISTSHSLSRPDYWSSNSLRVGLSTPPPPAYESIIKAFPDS
method.notes: SPR (Biacore 8K), antibody captured via anti-human Fc IgG, MYCT1 as analyte, steady-state affinity model
# unit: nM | format: bare number

Some binders with known Kd results, for comparison:
2B4-z8-uIgG1K (antibody, V domains shown) VH: QVQLVQSGAEVKKPGASVKVSCKASGYTFTDYNMHWVRQAPGQGLEWIGYINPNNGGSSYNRKFKGRVTMTTDTSTSTAYMELRSLRSDDTAVYYCATRFDVWGQGTTVTVSS VL: DVVMTQSPLSLPVTLGQPASISCKSSQSLLFSDGKTYLNWLQQRPGQSPRRLIYLVSKLDSGVPDRFSGSGSGTDFTLKISRVEAEDVGVYYCWQGTHFPQTFGGGTKVEIK :: 321
2B4-z6-uIgG1K (antibody, V domains shown) VH: QVQLVQSGAEVKKPGASVKVSCKASGYTFTDYNMHWVRQAPGQGLEWMGYINPNNGGSSYNRKFKGRVTMTTDTSTRTAYMELRSLRSDDTAVYYCATRFDVWGQGTTVTVSS VL: DVVMTQSPLSLPVTLGQPASISCKSSQSLLFSDGKTYLNWLQQRPGQSPRRLIYLVSKLDSGVPDRFSGSGSGTDFTLKISRVEAEDVGVYYCWQGTHFPQTFGGGTKVEIK :: 447

So for 2B4-z4-uIgG1K (antibody, V domains shown) VH: QVQLVQSGAEVKKPGASVKVSCKASGYTFTDYNMHWVRQAPGQGLEWMGYINPNNGGSSYNRKFKGRVTMTVDTSTSTAYMELRSLRSDDTAVYYCATRFDVWGQGTTVTVSS VL: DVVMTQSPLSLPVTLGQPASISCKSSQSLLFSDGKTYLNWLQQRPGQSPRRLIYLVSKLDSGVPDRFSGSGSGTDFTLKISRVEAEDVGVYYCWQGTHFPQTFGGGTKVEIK , the logged Kd turned out to be 354
